targetDesc: human dopamine D2 (Long form) receptors (Homo sapiens, UniProt P14416)
Sequence (P14416 whole entry): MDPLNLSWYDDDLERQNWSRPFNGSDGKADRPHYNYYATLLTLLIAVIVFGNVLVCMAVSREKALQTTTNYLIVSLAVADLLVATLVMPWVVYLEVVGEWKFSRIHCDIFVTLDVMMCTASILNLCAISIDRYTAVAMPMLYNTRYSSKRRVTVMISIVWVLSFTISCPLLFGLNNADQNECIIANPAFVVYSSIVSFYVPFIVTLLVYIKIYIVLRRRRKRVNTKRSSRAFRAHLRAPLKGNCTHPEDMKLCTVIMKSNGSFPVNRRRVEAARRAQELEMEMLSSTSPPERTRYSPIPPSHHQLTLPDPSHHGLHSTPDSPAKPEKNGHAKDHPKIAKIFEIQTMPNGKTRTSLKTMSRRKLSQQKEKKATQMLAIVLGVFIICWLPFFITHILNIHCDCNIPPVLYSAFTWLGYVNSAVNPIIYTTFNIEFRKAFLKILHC
testMethodNotes: Receptor binding assay, [3H]spiperone competition, D2
experimentalReadout: Ki (µM)
Give bare numbers, in µM.

// map `O=C1COc2cc(CN3CCN(c4ccc(Cl)cc4)CC3)ccc2N1` to recorded Ki (system: human dopamine D2 (Long form) receptors (Homo sapiens, UniProt P14416))
0.62

* * *

targetDesc: human recombinant dopamine D4.2 receptor subtype (Homo sapiens, UniProt P21917, DEL265-296)
Sequence (P21917 with tags, fused parts or gaps DEL265-296): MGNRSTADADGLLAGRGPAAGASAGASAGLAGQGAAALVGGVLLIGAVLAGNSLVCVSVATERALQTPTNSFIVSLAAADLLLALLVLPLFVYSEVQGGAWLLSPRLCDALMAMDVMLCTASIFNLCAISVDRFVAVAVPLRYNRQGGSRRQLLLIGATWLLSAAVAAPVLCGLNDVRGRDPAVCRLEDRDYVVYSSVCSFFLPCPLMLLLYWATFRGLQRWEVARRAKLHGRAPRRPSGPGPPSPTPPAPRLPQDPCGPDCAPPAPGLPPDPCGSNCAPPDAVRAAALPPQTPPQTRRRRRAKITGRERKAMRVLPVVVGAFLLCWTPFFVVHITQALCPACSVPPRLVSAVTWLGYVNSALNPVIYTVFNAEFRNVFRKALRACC
testMethodNotes: Receptor binding assay, [3H]spiperone competition, D4.2
runParameters: CHO K1 cell membranes, 0.2 nM [3H]spiperone, 60 minutes at 25°C; apparent Ki from IC50 by Cheng and Prusoff; read-out: D4 (Ki)
experimentalReadout: Ki (nM)
Give bare numbers, in nM.

Parameters: items (list). Returns: Ki for each item.
1. Cc1ccc(C2CCN(Cc3ccc4c(c3)NC(=O)CO4)CC2)cc1 [Example 16]
2. O=C1COc2ccc(CN3CCN(c4ccc(C(F)(F)F)cc4)CC3)cc2N1 [Example 31]

1. 2.84
2. 173
